Provide the reported TGI of each item.
# Tested on: NCI/ADR-RES ovarian
# Protocol Details: NCI tumour cell line growth inhibition, 48 h
# output: bare number, implied unit µM

stdin: For the compound COc1ccc(/C=C2\CCC/C(=C\c3ccc(OC)c(OC)c3)C2=O)cc1OC , report TGI.
stdout: 17.5

stdin: For the compound Cc1cnc(C(=O)NNc2nc3sc4c(c3c(=O)[nH]2)C(C)CCC4)cn1 (centres undefined) , give its reported TGI.
stdout: 10.4

stdin: Let me know recorded TGI for Cn1c(=O)c2nc3sc4c(n3c2n(C)c1=O)C(=O)c1ccccc1C4=O , thanks.
stdout: 87.3

stdin: State its TGI: COc1ccc(-c2nc3ccc(Cc4ccc5nc(-c6ccc(OC)cc6)[nH]c5c4)cc3[nH]2)cc1
stdout: 1.84
